# assay_target: UDP-N-acetylenolpyruvoylglucosamine reductase (Escherichia coli (strain K12), UniProt P08373)
# Sequence (P08373 whole entry): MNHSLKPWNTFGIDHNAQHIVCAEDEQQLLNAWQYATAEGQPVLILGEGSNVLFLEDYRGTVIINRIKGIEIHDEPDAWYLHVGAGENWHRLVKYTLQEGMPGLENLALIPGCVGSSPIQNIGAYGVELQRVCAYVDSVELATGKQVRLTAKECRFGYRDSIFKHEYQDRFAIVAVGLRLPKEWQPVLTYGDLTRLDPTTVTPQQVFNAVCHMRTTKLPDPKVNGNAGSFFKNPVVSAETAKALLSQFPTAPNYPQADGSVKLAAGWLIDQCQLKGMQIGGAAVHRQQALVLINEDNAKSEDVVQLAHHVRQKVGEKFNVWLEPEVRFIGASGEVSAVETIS
# experiment_description: Inhibitory concentration against MurB enzyme in Escherichia coli
pIC50: −log10 of the molar value.
measurement_type: pIC50

Reference set, count: 4
>  <structure_smiles_string>
O=c1c(Cc2ccccc2)c(O)n(-c2ccc(Cl)cc2)n1-c1ccc(Cl)cc1

>  <measurement_type>
pIC50

>  <measured_value>
< 4.30

$$$$
>  <structure_smiles_string>
O=c1c(Cc2ccccc2Cl)c(O)n(-c2ccc(Cl)cc2)n1-c1ccc(Cl)cc1

>  <measurement_type>
pIC50

>  <measured_value>
< 4.30

$$$$
>  <structure_smiles_string>
CCN(CC)CCc1c(O)n(-c2ccc(Cl)cc2)n(-c2ccc(Cl)cc2)c1=O

>  <measurement_type>
pIC50

>  <measured_value>
< 4.30

$$$$
>  <structure_smiles_string>
COc1cccc(Cc2c(O)n(-c3ccc(Cl)cc3)n(-c3ccc(Cl)cc3)c2=O)c1

>  <measurement_type>
pIC50

>  <measured_value>
4.30

$$$$

pIC50 for `CCN(CCc1c(O)n(-c2ccc(Cl)cc2)n(-c2ccc(Cl)cc2)c1=O)Cc1ccccc1` ? < 4.30

Repeat with `CCC(CC)Cc1c(O)n(-c2ccc(Cl)cc2)n(-c2ccc(Cl)cc2)c1=O` 4.30
